test: Volume of distribution in rat at 10 mg/kg, iv; type: ADME, organism-based; conditions: in vivo

| compound | Vd |
| --- | --- |
| Nc1nc(/C(=N/OC2(C(=O)O)CC2)C(=O)N[C@@H]2C(=O)N(S(=O)(=O)O)[C@@H]2CN2CCOC2=O)cs1 (stereo in doubt) | 0.3 L/kg |

----------
test system: Escherichia coli; assay: Antimicrobial activity against Escherichia coli expressing beta-lactamase KPC-2 by CLSI broth microdilution method; format: functional
experimental-readout: log10(MIC) (log10 of the value in µg/mL)

| compound | system-name | log10(MIC) |
| --- | --- | --- |
| C[C@@H]1CN(C[C@@H]2[C@H](NC(=O)/C(=N\OC(C)(C)C(=O)O)c3csc(N)n3)C(=O)N2S(=O)(=O)O)C(=O)O1 (stereo in doubt) | Escherichia coli | 0.00 |
| Nc1nc(/C(=N/OCC(=O)O)C(=O)N[C@@H]2C(=O)N(S(=O)(=O)O)[C@@H]2Cn2cncn2)cs1 (stereo in doubt) | Escherichia coli | -0.30 |
| CC(C)(O/N=C(\C(=O)N[C@@H]1C(=O)N2C(C(=O)[O-])=C(C[n+]3ccccc3)CS[C@H]12)c1csc(N)n1)C(=O)O [CEFTAZIDIME] | Escherichia coli | 0.90 |
| CC(C)(O/N=C(\C(=O)N[C@@H]1C(=O)N(S(=O)(=O)O)[C@@H]1CN1CCCC1=O)c1csc(N)n1)C(=O)O (stereo in doubt) | Escherichia coli | 0.30 |
| CC(C)(O/N=C(\C(=O)N[C@@H]1C(=O)N(S(=O)(=O)O)[C@@H]1Cn1cnnc1)c1csc(N)n1)C(=O)O (stereo in doubt) | Escherichia coli | 1.20 |
| CC(C)(O/N=C(\C(=O)N[C@@H]1C(=O)N(S(=O)(=O)O)[C@@H]1CN1C[C@@H](CO)OC1=O)c1csc(N)n1)C(=O)O (stereo in doubt) | Escherichia coli | 1.51 |

----------
test system: Escherichia coli; experiment: microbe, parasite or virus in culture
experimental-readout: log10 MIC (log10 of the value in µg/mL)

| molecule | log10 MIC |
| --- | --- |
| N=C(N)NCc1cnn(C[C@@H]2[C@H](NC(=O)/C(=N\OC3(C(=O)O)CC3)c3csc(N)n3)C(=O)N2S(=O)(=O)O)n1 (stereo in doubt) | 0.60 |
| CC1(C)[C@H](NC(=O)/C(=N\OCc2cc(=O)c(O)cn2O)c2csc(N)n2)C(=O)N1OS(=O)(=O)O (stereo in doubt) | -0.30 |
| C[C@H]1[C@H](NC(=O)/C(=N\OC(C)(C)C(=O)O)c2csc(N)n2)C(=O)N1S(=O)(=O)O | 2.11 |
| CCN1CCN(C(=O)N[C@@H](C(=O)N[C@@H]2C(=O)N3[C@@H]2SC(C)(C)[C@@H]3C(=O)O)c2ccccc2)C(=O)C1=O | 0.90 |
| C[C@@H](O)[C@H]1C(=O)N2C(C(=O)O)=C(SCCNC=N)C[C@H]12 [IMIPENEM ANHYDROUS] | -0.60 |
| Nc1nc(/C(=N/OC2(C(=O)O)CC2)C(=O)N[C@@H]2C(=O)N(S(=O)(=O)O)[C@@H]2CN2CCOC2=O)cs1 (stereo in doubt) | 0.90 |
| NC(=O)OC[C@@H]1[C@H](NC(=O)/C(=N\OCC(=O)O)c2csc(N)n2)C(=O)N1S(=O)(=O)O | 1.81 |
| N=C(N)NCc1cn(C[C@@H]2[C@H](NC(=O)/C(=N\OC3(C(=O)O)CC3)c3csc(N)n3)C(=O)N2S(=O)(=O)O)nn1 (stereo in doubt) | 0.90 |

----------
assay: Half life in rat at 10 mg/kg, iv; format: ADME, organism-based; settings: in vivo

| compound | half-life, min |
| --- | --- |
| Nc1nc(/C(=N/OC2(C(=O)O)CC2)C(=O)N[C@@H]2C(=O)N(S(=O)(=O)O)[C@@H]2CN2CCOC2=O)cs1 (stereo in doubt) | 36 |

----------
test: in vitro; details: mouse, plasma

| molecule | fraction unbound |
| --- | --- |
| Nc1nc(/C(=N/OC2(C(=O)O)CC2)C(=O)N[C@@H]2C(=O)N(S(=O)(=O)O)[C@@H]2CN2CCOC2=O)cs1 (stereo in doubt) | 0.74 |

----------
assay: AUC in mouse at 10 mg/kg, iv; format: ADME, organism-based; conditions: in vivo
experimental-readout: AUC (ng·h/mL)

| compound | experimental-readout | measure-unit | value-reported |
| --- | --- | --- | --- |
| Nc1nc(/C(=N/OC2(C(=O)O)CC2)C(=O)N[C@@H]2C(=O)N(S(=O)(=O)O)[C@@H]2CN2CCOC2=O)cs1 (stereo in doubt) | AUC | ng·h/mL | 10000 |

----------
tested on: Escherichia coli; experiment: microbe, parasite or virus in culture
experimental-readout: MIC (µg/mL)

| compound | system-name | value-reported |
| --- | --- | --- |
| CO/N=C(\C(=O)N[C@@H]1C(=O)N2C(C(=O)[O-])=C(C[N+]3(C)CCCC3)CS[C@H]12)c1csc(N)n1 | Escherichia coli | 1 |
| Cc1nnn(C[C@@H]2[C@H](NC(=O)/C(=N\OC(C)(C)C(=O)O)c3csc(N)n3)C(=O)N2S(=O)(=O)O)n1 (stereo in doubt) | Escherichia coli | 8 |
| NC(=O)OC[C@@H]1[C@H](NC(=O)/C(=N\OCC(=O)O)c2csc(N)n2)C(=O)N1S(=O)(=O)O | Escherichia coli | 4 |
| C[C@H](O/N=C(\C(=O)N[C@@H]1C(=O)N(S(=O)(=O)O)[C@@H]1Cn1cncn1)c1csc(N)n1)C(=O)O (stereo in doubt) | Escherichia coli | 4 |
| Nc1nc(/C(=N/OC2(C(=O)O)CC2)C(=O)N[C@@H]2C(=O)N(S(=O)(=O)O)[C@H]2CN2CCOC2=O)cs1 (stereo in doubt) | Escherichia coli | 32 |
| CC(C)(O/N=C(\C(=O)N[C@@H]1C(=O)N(S(=O)(=O)O)[C@@H]1Cn1ccnn1)c1csc(N)n1)C(=O)O (stereo in doubt) | Escherichia coli | 2 |
| CC(C)(O/N=C(\C(=O)N[C@@H]1C(=O)N(S(=O)(=O)O)[C@@H]1Cn1cncn1)c1nsc(N)n1)C(=O)O | Escherichia coli | 8 |

----------
test system: Escherichia coli; test: Antimicrobial activity against Escherichia coli expressing beta-lactamase KPC-2 by CLSI broth microdilution method; assay type: functional
experimental-readout: MIC (µg/mL)

| compound | value-reported |
| --- | --- |
| CC(C)(O/N=C(\C(=O)N[C@@H]1C(=O)N(S(=O)(=O)O)[C@@H]1Cn1cncn1)c1csc(N)n1)C(=O)O (stereo in doubt) | 1 |
| C[C@H](O/N=C(\C(=O)N[C@@H]1C(=O)N(S(=O)(=O)O)[C@@H]1Cn1cncn1)c1csc(N)n1)C(=O)O (stereo in doubt) | 1 |
| CC(C)(O/N=C(\C(=O)N[C@@H]1C(=O)N(S(=O)(=O)O)[C@@H]1Cn1ncnc1CNC(=N)N)c1csc(N)n1)C(=O)O (stereo in doubt) | 32 |
| CC(C)(O/N=C(/C(=O)N[C@@H]1C(=O)N(OS(=O)(=O)O)C1(C)C)c1csc(N)n1)C(=O)O (stereo in doubt) | 0.25 |
| Cc1ncnn1C[C@@H]1[C@H](NC(=O)/C(=N\OC(C)(C)C(=O)O)c2csc(N)n2)C(=O)N1S(=O)(=O)O (stereo in doubt) | 2 |
| CC(C)(O/N=C(\C(=O)N[C@@H]1C(=O)N(S(=O)(=O)O)[C@@H]1CN1C[C@@H](CNC(=N)N)OC1=O)c1csc(N)n1)C(=O)O (stereo in doubt) | 1 |

----------
tested on: Escherichia coli; assay: microbe, parasite or virus in culture
This listing pairs molecules with measured log10 of MIC.
experimental-readout: log10 of MIC (log10 of the value in µg/mL)

| molecule | system-name | log10 of MIC |
| --- | --- | --- |
| Nc1nc(/C(=N/OC2(C(=O)O)CC2)C(=O)N[C@@H]2C(=O)N(S(=O)(=O)O)[C@@H]2CN2CCOC2=O)cs1 (stereo in doubt) | Escherichia coli | -0.90 |
| CCN1CCN(C(=O)N[C@@H](C(=O)N[C@@H]2C(=O)N3[C@@H]2SC(C)(C)[C@@H]3C(=O)O)c2ccccc2)C(=O)C1=O | Escherichia coli | 1.81 |
| N=C(NC1CCNCC1)c1ccc(OC[C@H](O/N=C(\C(=O)N[C@@H]2C(=O)N(S(=O)(=O)O)[C@@H]2Cn2cncn2)c2csc(N)n2)C(=O)O)cc1 (stereo in doubt) | Escherichia coli | -0.90 |
| NC[C@@H]1CN(C[C@@H]2[C@H](NC(=O)/C(=N\OC3(C(=O)O)CC3)c3csc(N)n3)C(=O)N2S(=O)(=O)O)C(=O)O1 (stereo in doubt) | Escherichia coli | -1.22 |
| CO/N=C(\C(=O)N[C@@H]1C(=O)N2C(C(=O)[O-])=C(C[N+]3(C)CCCC3)CS[C@H]12)c1csc(N)n1 | Escherichia coli | 0.60 |
| N=C(N)NCc1cn(C[C@@H]2[C@H](NC(=O)/C(=N\OC3(C(=O)O)CC3)c3csc(N)n3)C(=O)N2S(=O)(=O)O)nn1 (stereo in doubt) | Escherichia coli | -0.90 |
| N=C(N)NCc1cnn(C[C@@H]2[C@H](NC(=O)/C(=N\OC3(C(=O)O)CC3)c3csc(N)n3)C(=O)N2S(=O)(=O)O)n1 (stereo in doubt) | Escherichia coli | -1.22 |
| NC(=O)OC[C@@H]1[C@H](NC(=O)/C(=N\OCC(=O)O)c2csc(N)n2)C(=O)N1S(=O)(=O)O | Escherichia coli | -0.90 |
| C[C@@H](O)[C@H]1C(=O)N2C(C(=O)O)=C(SCCNC=N)C[C@H]12 [IMIPENEM ANHYDROUS] | Escherichia coli | 0.00 |
| C[C@@H](O)[C@H]1C(=O)N2C(C(=O)O)=C(S[C@@H]3CN[C@H](C(=O)N(C)C)C3)[C@H](C)[C@H]12 | Escherichia coli | 0.90 |
